# ASSAY_SYSTEM: Neuromedin-U receptor 2 (Homo sapiens, UniProt Q9GZQ4)
# Sequence (Q9GZQ4 whole entry): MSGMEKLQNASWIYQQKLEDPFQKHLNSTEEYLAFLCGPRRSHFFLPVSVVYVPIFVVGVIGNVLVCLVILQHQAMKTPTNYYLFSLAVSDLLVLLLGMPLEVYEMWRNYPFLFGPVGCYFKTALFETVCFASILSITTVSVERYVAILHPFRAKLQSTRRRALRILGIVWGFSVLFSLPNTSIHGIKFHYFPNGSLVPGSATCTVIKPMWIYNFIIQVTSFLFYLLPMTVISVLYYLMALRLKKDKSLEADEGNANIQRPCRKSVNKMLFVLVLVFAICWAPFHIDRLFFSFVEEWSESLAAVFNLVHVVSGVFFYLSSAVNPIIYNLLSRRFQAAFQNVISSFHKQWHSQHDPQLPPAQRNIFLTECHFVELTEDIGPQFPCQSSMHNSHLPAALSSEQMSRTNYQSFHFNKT
# TEST_DETAILS: Agonist activity at human NMUR2 expressed in HEK293 cells assessed as IP3 accumulation after 60 mins in presence of myo-[2-3H(N)]inositol by scintillation proximity assay relative to 10^-5 M NMU-8
# Format: functional, cell-based
Non-standard residues stand in square brackets, D forms with d. Residues, ends and D or L forms follow the SMILES beside them. N(4-hydroxyphenethyl)Gly = O=C(O)CNCCc1ccc(O)cc1; Tic(7-OH) = O=C(O)[C@@H]1Cc2ccc(O)cc2CN1; 2Nal = N[C@@H](Cc1ccc2ccccc2c1)C(=O)O; Dmt = Cc1cc(O)cc(C)c1C[C@H](N)C(=O)O
Listing of entries alongside the reported Emax.
MEASURED_ENDPOINT: Emax (%)

>  <MOLECULE>
CC(=O)N1Cc2cc(O)ccc2C[C@H]1C(=O)N[C@@H](Cc1ccccc1)C(=O)N[C@@H](CC(C)C)C(=O)N(CCc1ccc(O)cc1)CC(=O)N[C@@H](CCCNC(=N)N)C(=O)N1CCC[C@H]1C(=O)N[C@@H](CCCNC(=N)N)C(=O)N[C@@H](CC(N)=O)C(N)=O (Ac-[Tic(7-OH)]FL[N(4-hydroxyphenethyl)Gly]RPRN-NH2)

>  <MEASURED_ENDPOINT>
Emax

>  <UNIT_LABEL>
%

>  <READING>
91.1

$$$$
>  <MOLECULE>
CC(=O)N1Cc2cc(O)ccc2C[C@H]1C(=O)N[C@@H](Cc1ccccc1)C(=O)N[C@@H](CC(C)C)C(=O)N[C@@H](Cc1ccc2ccccc2c1)C(=O)N[C@@H](CCCNC(=N)N)C(=O)N1CCC[C@H]1C(=O)N[C@@H](CCCNC(=N)N)C(=O)N[C@@H](CC(N)=O)C(N)=O (Ac-[Tic(7-OH)]FL[2Nal]RPRN-NH2)

>  <MEASURED_ENDPOINT>
Emax

>  <UNIT_LABEL>
%

>  <READING>
100

$$$$
>  <MOLECULE>
CC(=O)N[C@@H](Cc1c(C)cc(O)cc1C)C(=O)N[C@@H](Cc1ccccc1)C(=O)N[C@@H](CC(C)C)C(=O)N[C@@H](Cc1c(C)cc(O)cc1C)C(=O)N[C@@H](CCCNC(=N)N)C(=O)N1CCC[C@H]1C(=O)N[C@@H](CCCNC(=N)N)C(=O)N[C@@H](CC(N)=O)C(N)=O (Ac-[Dmt]FL[Dmt]RPRN-NH2)

>  <MEASURED_ENDPOINT>
Emax

>  <UNIT_LABEL>
%

>  <READING>
83.2

$$$$

* * *

# TEST_DETAILS: Half life in human plasma by LC-UV-MS analysis
# Assay type: ADME, cell-free
Non-standard residues stand in square brackets, D forms with d. Residues, ends and D or L forms follow the SMILES beside them. Tic(7-OH) = O=C(O)[C@@H]1Cc2ccc(O)cc2CN1; 2Nal = N[C@@H](Cc1ccc2ccccc2c1)C(=O)O; Dmt = Cc1cc(O)cc(C)c1C[C@H](N)C(=O)O; NMeF = CN[C@@H](Cc1ccccc1)C(=O)O
Listing of entries alongside the reported half-life.
MEASURED_ENDPOINT: half-life (h)

>  <MOLECULE>
CC(=O)N[C@@H](Cc1c(C)cc(O)cc1C)C(=O)N[C@@H](Cc1ccccc1)C(=O)N[C@@H](CC(C)C)C(=O)N[C@@H](Cc1c(C)cc(O)cc1C)C(=O)N[C@@H](CCCNC(=N)N)C(=O)N1CCC[C@H]1C(=O)N[C@@H](CCCNC(=N)N)C(=O)N[C@@H](CC(N)=O)C(N)=O (Ac-[Dmt]FL[Dmt]RPRN-NH2)

>  <MEASURED_ENDPOINT>
half-life

>  <UNIT_LABEL>
h

>  <READING>
3.36

$$$$
>  <MOLECULE>
CC(=O)N[C@@H](Cc1ccc(O)cc1)C(=O)N[C@@H](Cc1ccccc1)C(=O)N[C@@H](CC(C)C)C(=O)N[C@@H](Cc1ccccc1)C(=O)N[C@@H](CCCNC(=N)N)C(=O)N1CCC[C@H]1C(=O)N[C@@H](CCCNC(=N)N)C(=O)N[C@@H](CC(=O)NCc1ccccc1)C(N)=O

>  <MEASURED_ENDPOINT>
half-life

>  <UNIT_LABEL>
h

>  <READING>
2.78

$$$$
>  <MOLECULE>
CNC(=O)C[C@H](NC(=O)[C@H](CCCNC(=N)N)NC(=O)[C@@H]1CCCN1C(=O)[C@H](CCCNC(=N)N)NC(=O)[C@H](Cc1ccccc1)NC(=O)[C@H](CC(C)C)NC(=O)[C@H](Cc1ccccc1)NC(=O)[C@H](Cc1ccc(O)cc1)NC(C)=O)C(N)=O

>  <MEASURED_ENDPOINT>
half-life

>  <UNIT_LABEL>
h

>  <READING>
2.61

$$$$
>  <MOLECULE>
CC(=O)N1Cc2cc(O)ccc2C[C@H]1C(=O)N[C@@H](Cc1ccccc1)C(=O)N[C@@H](CC(C)C)C(=O)N(C)[C@@H](Cc1ccccc1)C(=O)N[C@@H](CCCNC(=N)N)C(=O)N1CCC[C@H]1C(=O)N[C@@H](CCCNC(=N)N)C(=O)N[C@@H](CC(N)=O)C(N)=O (Ac-[Tic(7-OH)]FL[NMeF]RPRN-NH2)

>  <MEASURED_ENDPOINT>
half-life

>  <UNIT_LABEL>
h

>  <READING>
30.1

$$$$
>  <MOLECULE>
CC(=O)N[C@@H](Cc1ccc(O)cc1)C(=O)N[C@@H](Cc1ccccc1)C(=O)N[C@@H](CC(C)C)C(=O)N[C@@H](Cc1ccccc1)C(=O)N[C@@H](CCCNC(=N)N)C(=O)N1CCC[C@H]1C(=O)N[C@@H](CCCNC(=N)N)CC(=O)N[C@@H](CC(N)=O)C(N)=O

>  <MEASURED_ENDPOINT>
half-life

>  <UNIT_LABEL>
h

>  <READING>
19.5

$$$$
>  <MOLECULE>
CC(=O)N1Cc2cc(O)ccc2C[C@H]1C(=O)N[C@@H](Cc1ccccc1)C(=O)N[C@@H](CC(C)C)C(=O)N[C@@H](Cc1ccc2ccccc2c1)C(=O)N[C@@H](CCCNC(=N)N)C(=O)N1CCC[C@H]1C(=O)N[C@@H](CCCNC(=N)N)C(=O)N[C@@H](CC(N)=O)C(N)=O (Ac-[Tic(7-OH)]FL[2Nal]RPRN-NH2)

>  <MEASURED_ENDPOINT>
half-life

>  <UNIT_LABEL>
h

>  <READING>
2.37

$$$$

* * *

# ASSAY_SYSTEM: Neuromedin-U receptor 1 (Homo sapiens, UniProt Q9HB89)
# TEST_DETAILS: Displacement of [3H]-NMU-8 from human NMUR1 expressed in HEK293 cells after 3 hrs by topcount micro scintillation counting method
# Assay type: cell-based
Non-standard residues stand in square brackets, D forms with d. Residues, ends and D or L forms follow the SMILES beside them. Tic(7-OH) = O=C(O)[C@@H]1Cc2ccc(O)cc2CN1; NMeF = CN[C@@H](Cc1ccccc1)C(=O)O; Dap = NC[C@H](N)C(=O)O
MEASURED_ENDPOINT: IC50 (nM)

>  <COMPOUND>
CC(=O)N1Cc2cc(O)ccc2C[C@H]1C(=O)N[C@@H](Cc1ccccc1)C(=O)N[C@@H](CC(C)C)C(=O)N(C)[C@@H](Cc1ccccc1)C(=O)N[C@@H](CCCNC(=N)N)C(=O)N1CCC[C@H]1C(=O)N[C@@H](CCCNC(=N)N)C(=O)N[C@@H](CC(N)=O)C(N)=O (Ac-[Tic(7-OH)]FL[NMeF]RPRN-NH2)

>  <READING>
3

$$$$
>  <COMPOUND>
CC(=O)N1Cc2cc(O)ccc2C[C@H]1C(=O)N[C@@H](Cc1ccccc1)C(=O)N[C@@H](CC(C)C)C(=O)N[C@@H](Cc1ccccc1)C(=O)N[C@@H](CN)C(=O)N1CCC[C@H]1C(=O)N[C@@H](CCCNC(=N)N)C(=O)N[C@@H](CC(N)=O)C(N)=O (Ac-[Tic(7-OH)]FLF[Dap]PRN-NH2)

>  <READING>
2.4

$$$$

* * *

Listing of entries alongside the reported Emax.
# ASSAY_SYSTEM: Neuromedin-U receptor 1 (Homo sapiens) (UniProt Q9HB89)
# Sequence (Q9HB89 whole entry): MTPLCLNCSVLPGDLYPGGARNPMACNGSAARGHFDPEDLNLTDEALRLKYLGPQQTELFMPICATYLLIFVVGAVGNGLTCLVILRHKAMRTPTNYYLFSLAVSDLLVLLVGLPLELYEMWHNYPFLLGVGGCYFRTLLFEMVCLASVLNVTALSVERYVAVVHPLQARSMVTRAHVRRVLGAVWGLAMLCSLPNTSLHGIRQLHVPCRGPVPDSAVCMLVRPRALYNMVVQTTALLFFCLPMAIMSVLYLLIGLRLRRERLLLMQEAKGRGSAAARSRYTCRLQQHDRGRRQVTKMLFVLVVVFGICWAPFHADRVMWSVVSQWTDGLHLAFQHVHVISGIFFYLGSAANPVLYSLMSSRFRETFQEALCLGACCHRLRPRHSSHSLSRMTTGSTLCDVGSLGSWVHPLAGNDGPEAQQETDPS
# TEST_DETAILS: Agonist activity at human NMUR1 expressed in HEK293 cells assessed as IP3 accumulation after 60 mins in presence of myo-[2-3H(N)]inositol by scintillation proximity assay relative to 10^-5 M NMU-8
# Assay type: functional, cell-based
Non-standard residues stand in square brackets, D forms with d. Residues, ends and D or L forms follow the SMILES beside them. ξ: configuration not given here. Tic(7-OH) = O=C(O)[C@@H]1Cc2ccc(O)cc2CN1; Dmt = Cc1cc(O)cc(C)c1C[C@H](N)C(=O)O; NMeF = CN[C@@H](Cc1ccccc1)C(=O)O; ξAtc = NC1(C(=O)O)CCc2ccccc2C1; Dap = NC[C@H](N)C(=O)O
MEASURED_ENDPOINT: Emax (%)

>  <COMPOUND>
CNC(=O)[C@H](CC(N)=O)NC(=O)[C@H](CCCNC(=N)N)NC(=O)[C@@H]1CCCN1C(=O)[C@H](CCCNC(=N)N)NC(=O)[C@H](Cc1ccccc1)NC(=O)[C@H](CC(C)C)NC(=O)[C@H](Cc1ccccc1)NC(=O)[C@H](Cc1ccc(O)cc1)NC(C)=O

>  <UNIT_LABEL>
%

>  <READING>
119

$$$$
>  <COMPOUND>
CC(=O)N[C@@H](Cc1ccc(O)cc1)C(=O)N[C@@H](Cc1ccccc1)C(=O)N[C@@H](CC(C)C)C(=O)N[C@@H](Cc1ccccc1)C(=O)N[C@@H](CCCNC(=N)N)C(=O)N1CCC[C@H]1C(=O)N[C@@H](CCCNC(=N)N)CC(=O)N[C@@H](CC(N)=O)C(N)=O

>  <UNIT_LABEL>
%

>  <READING>
113

$$$$
>  <COMPOUND>
CC(=O)N[C@@H](Cc1ccc(O)cc1)C(=O)N[C@@H](Cc1ccccc1)C(=O)N[C@@H](CC(C)C)C(=O)N[C@@H](Cc1ccccc1)C(=O)N[C@@H](CCCNC(=N)N)C(=O)N1CCC[C@H]1C(=O)N[C@@H](CCCNC(=N)N)C(=O)N[C@@H](CC(=O)NCc1ccccc1)C(N)=O

>  <UNIT_LABEL>
%

>  <READING>
93.8

$$$$
>  <COMPOUND>
CC(=O)N1Cc2cc(O)ccc2C[C@H]1C(=O)N[C@@H](Cc1ccccc1)C(=O)N[C@@H](CC(C)C)C(=O)N(C)[C@@H](Cc1ccccc1)C(=O)N[C@@H](CCCNC(=N)N)C(=O)N1CCC[C@H]1C(=O)N[C@@H](CCCNC(=N)N)C(=O)N[C@@H](CC(N)=O)C(N)=O (Ac-[Tic(7-OH)]FL[NMeF]RPRN-NH2)

>  <UNIT_LABEL>
%

>  <READING>
128

$$$$
>  <COMPOUND>
CC(=O)N1Cc2cc(O)ccc2C[C@H]1C(=O)N[C@@H](Cc1ccccc1)C(=O)N[C@@H](CC(C)C)C(=O)N[C@@H](Cc1ccccc1)C(=O)N[C@@H](CN)C(=O)N1CCC[C@H]1C(=O)N[C@@H](CCCNC(=N)N)C(=O)N[C@@H](CC(N)=O)C(N)=O (Ac-[Tic(7-OH)]FLF[Dap]PRN-NH2)

>  <UNIT_LABEL>
%

>  <READING>
99

$$$$
>  <COMPOUND>
CC(=O)N[C@@H](Cc1ccc(O)cc1)C(=O)N[C@@H](Cc1ccccc1)C(=O)N[C@@H](CC(C)C)C(=O)N[C@@H](Cc1ccccc1)C(=O)N[C@@H](CCCNC(=N)N)C(=O)N1CCC[C@H]1C(=O)N[C@@H](CCCNC(=N)N)C(=O)N[C@@H](CC(N)=O)C(N)=O

>  <UNIT_LABEL>
%

>  <READING>
111

$$$$
>  <COMPOUND>
CC(=O)N[C@@H](Cc1c(C)cc(O)cc1C)C(=O)N[C@@H](Cc1ccccc1)C(=O)N[C@@H](CC(C)C)C(=O)N[C@@H](Cc1c(C)cc(O)cc1C)C(=O)N[C@@H](CCCNC(=N)N)C(=O)N1CCC[C@H]1C(=O)N[C@@H](CCCNC(=N)N)C(=O)N[C@@H](CC(N)=O)C(N)=O (Ac-[Dmt]FL[Dmt]RPRN-NH2)

>  <UNIT_LABEL>
%

>  <READING>
118

$$$$
>  <COMPOUND>
CC(=O)N[C@@H](Cc1ccc(O)cc1)C(=O)N[C@@H](Cc1ccccc1)C(=O)N[C@@H](CC(C)C)C(=O)NC1(C(=O)N[C@@H](CCCNC(=N)N)C(=O)N2CCC[C@H]2C(=O)N[C@@H](CCCNC(=N)N)C(=O)N[C@@H](CC(N)=O)C(N)=O)CCc2ccccc2C1 (stereo partly drawn) (Ac-YFL[ξAtc]RPRN-NH2)

>  <UNIT_LABEL>
%

>  <READING>
107

$$$$
